B1: HDV Ribozyme (parent)
chain: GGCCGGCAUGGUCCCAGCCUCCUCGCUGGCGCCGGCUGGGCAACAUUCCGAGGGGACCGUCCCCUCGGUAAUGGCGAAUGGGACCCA

variants of: B1; test: self-cleavage, relative activity (ratio to wild type); higher = more cleavage; co-transcriptional
experimental_readout: self-cleavage

> print(dat)
    variant.annotation  test.result
 1           G68C C85U        0.892
 2           C18G A71C        0.172
 3            A8U G50A        0.739
 4           G34C U72C         0.19
 5           U12G C84G        0.256
 6           G29U G74U       0.0963
 7           A51G U72A        0.665
 8           C61U A87U        0.959
 9           G17C U23A        0.344
10           U69A A87U        0.913
11           A16U G55C         0.98
12           G34U C85U        0.164
13           U27G G50U         0.88
14           C44U U72C        0.779
15            C3U U72C        0.471
16           A56G G67A         1.09
17            C3A G34A        0.123
18            U9C A43G        0.755
19            G2C G67U        0.026
20           G17U G31U       0.0723
21           G29U A42G        0.148
22           G39C U65C        0.374

Recorded values, source the RNAGym collection of RNA variant scans (doi:10.7554/elife.80360).
